Would you mind telling me the reported pKi of each entry?
Target: chimeric human H3 receptor (Homo sapiens, UniProt Q9Y5N1, E19D)
Construct: made in house; host or cells: Sf9 insect cells (baculovirus infection); P2 membrane preparation
Sequence (Q9Y5N1 with tags, fused parts or gaps E19D): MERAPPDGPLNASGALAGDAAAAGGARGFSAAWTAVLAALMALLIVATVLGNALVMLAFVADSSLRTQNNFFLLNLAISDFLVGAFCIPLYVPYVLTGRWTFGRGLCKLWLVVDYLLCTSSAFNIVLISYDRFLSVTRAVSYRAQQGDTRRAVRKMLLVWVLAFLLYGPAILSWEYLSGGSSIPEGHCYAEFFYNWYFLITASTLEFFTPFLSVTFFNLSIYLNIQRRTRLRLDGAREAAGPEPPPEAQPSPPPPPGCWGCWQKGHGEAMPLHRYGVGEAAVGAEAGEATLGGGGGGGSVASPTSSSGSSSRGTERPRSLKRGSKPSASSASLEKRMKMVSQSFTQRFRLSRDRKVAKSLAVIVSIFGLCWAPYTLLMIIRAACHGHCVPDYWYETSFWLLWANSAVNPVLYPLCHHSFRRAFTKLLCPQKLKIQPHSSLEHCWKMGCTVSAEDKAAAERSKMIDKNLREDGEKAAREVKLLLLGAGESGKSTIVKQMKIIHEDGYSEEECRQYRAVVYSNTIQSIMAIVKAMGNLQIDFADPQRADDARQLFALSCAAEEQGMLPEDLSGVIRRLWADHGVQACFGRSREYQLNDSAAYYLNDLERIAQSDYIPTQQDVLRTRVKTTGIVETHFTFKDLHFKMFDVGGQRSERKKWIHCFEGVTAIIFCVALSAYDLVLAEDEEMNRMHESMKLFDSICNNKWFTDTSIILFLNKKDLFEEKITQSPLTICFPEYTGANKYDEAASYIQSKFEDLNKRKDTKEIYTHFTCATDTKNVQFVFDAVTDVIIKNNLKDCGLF
Test: Chimeric human H3 receptor GTP binding assay (agonist-stimulated GTP-gamma35S binding, Example 7)
Format: biochemical
Conditions: Table II, "*" in Ki; assay of Example 7; read-out: Ki
pKi: −log10 of the molar value.

Kindly give each listed record's pKi.
1. O=C(CN1CCN(c2ccc(-c3ccc(C(F)(F)F)cc3)cc2)CC1)N1CCN(C2CCC2)CC1 [Compound 606]
2. COc1ccc(N2CCN(CC(=O)N3CCN(C4CCC4)CC3)CC2)cc1OC [Compound 733]
3. O=C(CN1CCN(c2ccc(-c3cc(F)ccc3F)cc2)CC1)N1CCN(C2CCC2)CC1 [Compound 685]

["> 6.00", "> 6.00", "> 6.00"]
